Biological target: MDR1 (Homo sapiens (Human))
Sequence (P08183 whole entry): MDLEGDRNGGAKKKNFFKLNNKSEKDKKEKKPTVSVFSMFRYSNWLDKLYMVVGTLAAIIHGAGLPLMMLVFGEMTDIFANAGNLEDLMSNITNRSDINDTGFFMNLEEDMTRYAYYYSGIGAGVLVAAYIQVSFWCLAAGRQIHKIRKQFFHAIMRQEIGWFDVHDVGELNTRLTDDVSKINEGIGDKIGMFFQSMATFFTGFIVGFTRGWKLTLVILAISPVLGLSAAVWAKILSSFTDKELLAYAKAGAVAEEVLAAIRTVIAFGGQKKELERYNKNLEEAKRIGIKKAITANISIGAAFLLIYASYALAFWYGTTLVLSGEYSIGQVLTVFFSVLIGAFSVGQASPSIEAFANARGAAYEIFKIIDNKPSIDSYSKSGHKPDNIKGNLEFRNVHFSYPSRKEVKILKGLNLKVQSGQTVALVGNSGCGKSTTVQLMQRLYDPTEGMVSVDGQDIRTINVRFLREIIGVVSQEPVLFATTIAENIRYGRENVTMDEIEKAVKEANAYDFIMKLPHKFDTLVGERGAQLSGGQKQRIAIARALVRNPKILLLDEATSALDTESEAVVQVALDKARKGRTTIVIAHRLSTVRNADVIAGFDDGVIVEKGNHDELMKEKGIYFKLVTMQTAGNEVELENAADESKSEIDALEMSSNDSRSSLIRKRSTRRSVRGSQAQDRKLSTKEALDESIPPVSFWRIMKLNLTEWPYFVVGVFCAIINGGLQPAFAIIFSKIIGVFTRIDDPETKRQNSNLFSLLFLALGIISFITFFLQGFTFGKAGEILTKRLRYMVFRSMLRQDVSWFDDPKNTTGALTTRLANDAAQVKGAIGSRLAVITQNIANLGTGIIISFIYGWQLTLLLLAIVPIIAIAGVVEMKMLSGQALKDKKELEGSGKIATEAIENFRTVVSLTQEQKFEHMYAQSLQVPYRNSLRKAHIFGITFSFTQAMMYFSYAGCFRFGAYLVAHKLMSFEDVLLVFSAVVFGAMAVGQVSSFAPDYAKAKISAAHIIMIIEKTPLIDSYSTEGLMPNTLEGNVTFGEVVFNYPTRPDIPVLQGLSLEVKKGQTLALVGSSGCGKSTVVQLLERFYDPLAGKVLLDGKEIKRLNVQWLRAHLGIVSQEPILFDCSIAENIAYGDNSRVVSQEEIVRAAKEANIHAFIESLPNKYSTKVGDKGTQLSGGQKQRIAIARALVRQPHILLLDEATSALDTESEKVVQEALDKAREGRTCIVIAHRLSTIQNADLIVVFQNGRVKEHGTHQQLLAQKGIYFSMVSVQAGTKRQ
Assay: MDR1-MDCK assay (apparent permeability, efflux ratio)
Format: in vitro ADME
Details: human, MDCK-MDR1, 1 μM, read-out: MDR1-MDCK_Efflux Ratio
endpoint: efflux ratio at 120 min, 1 μM
Numbers only.

Solved entries (count: 3):
compound	efflux ratio at 120 min, 1 μM
C[C@@H]1C[C@@H]1n1cccc(NC(=O)c2cc3cn(C45COC(C4)C5)nc3nc2OC2CC2)c1=O	5.09
C[C@]12CC[C@](n3cc4cc(C(=O)Nc5cccn(C6CC6)c5=O)c(OC5CCC5)cc4n3)(CO1)C2 (single isomer, unassigned)	1.71
C[C@@H]1C[C@@H]1n1cccc(NC(=O)c2cc3cn([C@@]45CC[C@@H](C4)OC5)nc3nc2OC2CC2)c1=O (single isomer, unassigned)	2.5

Here is another compound to look at.
What value of efflux ratio at 120 min, 1 μM has been recorded for this entry: COCC12CC(n3cc4cc(C(=O)Nc5cccn(C6CC6)c5=O)c(OC(C)C)cc4n3)(CO1)C2
2.82

---

Kindly supply the reported Kp values for the records listed here.
Test: Kpuu assay (in vivo brain-to-plasma partition, unbound)
Settings: brain (unbound) versus plasma (unbound); intravenous infusion 4 to 24 h; unbound drug partition coefficient; read-out: Brain Kpu,u

structure.string	Kp
CC(C)Oc1cc2nn(C34COC(C3)C4)cc2cc1C(=O)Nc1cccn([C@H]2C[C@H]2F)c1=O	0.4
CC(C)Oc1nc2nn(C34COC(C3)C4)cc2cc1C(=O)Nc1cccn([C@H]2C[C@H]2C)c1=O	1
CC(C)Oc1nc2nn(C[C@H]3CCOC3)cc2cc1C(=O)Nc1cccn(C2CC2)c1=O	0.8

Moving on to the next compound.
Returns the measured Kp for the input compound. Input: COCC12CC(n3cc4cc(C(=O)Nc5cccn(C6CC6)c5=O)c(OC(C)C)cc4n3)(CO1)C2
0.7

---

Field: solubility at 24 h. Provide a value for each of the compounds that follow.
Assay: Kinetic solubility assay (CLND), potassium phosphate buffer pH 6.8
Format: physicochemical
Conditions: potassium phosphate buffer, pH 6.8, aqueous buffer, kinetic from dmso stock, pH 6.8, 2% DMSO, 24 hours at ambient temperature
Numbers only, in µg/mL.

Some solved entries appear below for comparison.
compound	unit.info	assay.result
CC(C)Oc1cc2nn(C34COC(C)(C3)C4)cc2cc1C(=O)Nc1cccn([C@@H]2C[C@@H]2F)c1=O (single isomer, unassigned) [Example 36]	µg/mL	69.5
CC(C)Oc1nc2nn(C34COC(C)(C3)C4)cc2cc1C(=O)Nc1cccn(C2C[C@@H]2F)c1=O (mixture of isomers)	µg/mL	2.8

Proceed to the following item.
Data request, read-out solubility at 24 h, for CC[C@@H](C)Oc1nc2nn(C34COC(C)(C3)C4)cc2cc1C(=O)Nc1cccn(C2CC2)c1=O
43

---

Target: MDR1 (Homo sapiens (Human))
Test: MDR1-MDCK assay (apparent permeability, efflux ratio)
Format: in vitro ADME
Conditions: human, MDCK-MDR1, 1 μM, read-out: MDR1-MDCK_Efflux Ratio
Assignment: determine reported efflux ratio at 120 min, 1 μM for the given compounds.
One number for each entry.

compound	endpoint	assay.result
COCC12CC(n3cc4cc(C(=O)Nc5cccn(C6CC6)c5=O)c(OC(C)C)nc4n3)(CO1)C2 [Example 11]	efflux ratio at 120 min, 1 μM	4.8
CC(C)Oc1nc2nn([C@@H]3CCCOC3)cc2cc1C(=O)Nc1cccn(C2CC2)c1=O [Example 17]	efflux ratio at 120 min, 1 μM	2.6
CC(C)Oc1cc2nn([C@]34CC[C@](C)(C3)OC4)cc2cc1C(=O)Nc1cccn([C@H]2C[C@H]2F)c1=O (single isomer, unassigned) [Example 51]	efflux ratio at 120 min, 1 μM	3.47
CC(C)Oc1cc2nn(C34COC(C3)C4)cc2cc1C(=O)Nc1cccn([C@H]2C[C@H]2F)c1=O [Example 68]	efflux ratio at 120 min, 1 μM	8.61
COCC12CC(n3cc4cc(C(=O)Nc5cccn([C@H]6C[C@H]6F)c5=O)c(OC(C)C)nc4n3)(CO1)C2 [Example 49]	efflux ratio at 120 min, 1 μM	9.67

Look at each compound and report its efflux ratio at 120 min, 1 μM.
1. COC[C@@]12CC[C@@](n3cc4cc(C(=O)Nc5cccn(C6CC6)c5=O)c(OC(C)C)nc4n3)(CO1)C2 [Example 30]
2. CC(C)Oc1nc2nn(C34COC(C)(C3)C4)cc2cc1C(=O)Nc1cccn([C@H]2CC2(C)C)c1=O [Example 23]
3. COCC12CC(n3cc4cc(C(=O)Nc5cccn([C@H]6C[C@H]6F)c5=O)c(OC(C)C)cc4n3)(CO1)C2 [Example 67]
4. CC(C)Oc1cc2nn([C@@]34CC[C@@](C)(C3)OC4)cc2cc1C(=O)Nc1cccn(C2CC2)c1=O [Example 2]

1: 2.58; 2: 1.15; 3: 5.31; 4: 1.58

---

Assay: Kinetic solubility assay (CLND), potassium phosphate buffer pH 6.8
Format: physicochemical
Details: potassium phosphate buffer, pH 6.8, aqueous buffer, kinetic from dmso stock, pH 6.8, 2% DMSO, 24 hours at ambient temperature
endpoint: solubility at 24 h (µg/mL)
Answers are plain numbers, in µg/mL.

Please review the following examples before continuing.
compound	unit.info	assay.result
CC12CC(n3cc4cc(C(=O)Nc5cccn([C@@H]6C[C@@H]6F)c5=O)c(OC5CCC5)nc4n3)(CO1)C2 (racemic) [Example 25]	µg/mL	29.2
CC(C)Oc1nc2nn(C34COC(C)(C3)C4)cc2cc1C(=O)Nc1ccnn(C2CC2)c1=O	µg/mL	0.2
COCC12CC(n3cc4cc(C(=O)Nc5cccn([C@@H]6C[C@H]6F)c5=O)c(OC5CCC5)nc4n3)(CO1)C2 (single isomer, unassigned)	µg/mL	13
C[C@]12CC[C@](n3cc4cc(C(=O)Nc5cccn(C6CC6)c5=O)c(OC5CCC5)cc4n3)(CO1)C2 (single isomer, unassigned)	µg/mL	19.7

Okay, here is my list. What is solubility at 24 h for each of these?
1. C[C@@]12CC[C@@](n3cc4cc(C(=O)Nc5cccn(C6CC6)c5=O)c(OC5CCC5)nc4n3)(CO1)C2
2. CC12CC(n3cc4cc(C(=O)Nc5cccn([C@H]6C[C@H]6F)c5=O)c(OC5CCC5)nc4n3)(CO1)C2

[5.57, 1.2]

---

Biological target: IRAK4 (Homo sapiens (Human), UniProt Q9NWZ3)
Sequence (Q9NWZ3 whole entry): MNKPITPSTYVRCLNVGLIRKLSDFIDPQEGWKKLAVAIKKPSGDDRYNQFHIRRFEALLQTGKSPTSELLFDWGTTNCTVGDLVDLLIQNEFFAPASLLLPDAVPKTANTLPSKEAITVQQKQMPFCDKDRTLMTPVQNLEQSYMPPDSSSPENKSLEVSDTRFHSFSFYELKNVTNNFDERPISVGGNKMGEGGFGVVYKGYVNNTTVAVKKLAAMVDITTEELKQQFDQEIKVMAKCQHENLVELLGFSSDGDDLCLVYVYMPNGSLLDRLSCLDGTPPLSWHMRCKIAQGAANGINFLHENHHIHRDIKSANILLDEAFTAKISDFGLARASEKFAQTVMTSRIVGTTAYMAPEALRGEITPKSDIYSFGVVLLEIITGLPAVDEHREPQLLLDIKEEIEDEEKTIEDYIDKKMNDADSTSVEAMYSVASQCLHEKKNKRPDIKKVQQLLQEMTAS
Experiment: IRAK4 2-hour 1 mM ATP Biochemical Assay (MesoScale Detection format)
Conditions: 100 pM IRAK4, read-out: IRAK4 IC50
endpoint: pIC50
Answers are plain numbers, as −log10 of the molar value.

molecule	endpoint	assay.result
CC(C)Oc1cc2nn([C@]34CC[C@](C)(C3)OC4)cc2cc1C(=O)Nc1cccn([C@@H]2C[C@H]2F)c1=O (single isomer, unassigned)	pIC50	9.30
COCC12CC(n3cc4cc(C(=O)Nc5cccn([C@@H]6C[C@H]6F)c5=O)c(OC(C)C)nc4n3)(CO1)C2 (single isomer, unassigned)	pIC50	9.30
COCC12CC(n3cc4cc(C(=O)Nc5cccn([C@@H]6C[C@H]6F)c5=O)c(OC(C)C)cc4n3)(CO1)C2 (single isomer, unassigned)	pIC50	9.10
COCC12CC(n3cc4cc(C(=O)Nc5cccn([C@H]6C[C@@H]6F)c5=O)c(OC(C)C)nc4n3)(CO1)C2 (single isomer, unassigned)	pIC50	9.40
C[C@@]12CC[C@@](n3cc4cc(C(=O)Nc5cccn(C6CC6)c5=O)c(OC5CCC5)cc4n3)(CO1)C2 (single isomer, unassigned)	pIC50	9.40

For each listed entry, give its pIC50.
1. CC(C)Oc1nc2nn([C@@]34CC[C@@](C)(C3)OC4)cc2cc1C(=O)Nc1cccn(C2CC2)c1=O (single isomer, unassigned)
2. CC[C@H](C)Oc1nc2nn(C34COC(C)(C3)C4)cc2cc1C(=O)Nc1cccn(C2CC2)c1=O
3. C[C@@H]1C[C@@H]1n1cccc(NC(=O)c2cc3cn(C45COC(C4)C5)nc3nc2OC2CC2)c1=O
4. CC(C)Oc1cc2nn([C@@]34CC[C@@](C)(C3)OC4)cc2cc1C(=O)Nc1cccn([C@H]2C[C@H]2F)c1=O
5. CC[C@@H](C)Oc1nc2nn(C34COC(CF)(C3)C4)cc2cc1C(=O)Nc1cccn(C2CC2)c1=O
6. C[C@]12CC[C@](n3cc4cc(C(=O)Nc5cccn(C6CC6)c5=O)c(OC5CCC5)nc4n3)(CO1)C2
7. CC[C@H](C)Oc1nc2nn(C34COC(CF)(C3)C4)cc2cc1C(=O)Nc1cccn(C2CC2)c1=O
8. COCC12CC(n3cc4cc(C(=O)Nc5cccn([C@H]6C[C@@H]6F)c5=O)c(OC5CCC5)nc4n3)(CO1)C2 (single isomer, unassigned)

1. 9.70
2. 9.30
3. 8.96
4. 10.00
5. 8.40
6. 9.15
7. 8.96
8. 9.10
